Data credit: ChEMBL document CHEMBL1135219

experiment: Peak concentration (Cmax) at a dose of 20 mg/kg in rats; type: ADME, organism-based; set-up: dose 20 mg/kg; details: rat, in vivo
Classify by measured Cmax: fulfilled if it is equal to or exceeds 7000 ng/mL, not fulfilled if it is smaller.

1) CCn1cc(C(=O)O)c(=O)c2cc(F)c(N3CCN(c4ccccn4)CC3)c(C(F)(F)F)c21 : not fulfilled
2) O=C(O)c1cn(C2CC2)c2c(C(F)(F)F)c(N3CCN(c4ccccn4)CC3)c(F)cc2c1=O : not fulfilled
3) COc1ccccc1N1CCN(c2c(F)cc3c(=O)c(C(=O)O)cn(C4CC4)c3c2C(F)(F)F)CC1 : not fulfilled
4) CCn1cc(C(=O)O)c(=O)c2cc(F)c(N3CCN(c4ncccn4)CC3)c(C(F)(F)F)c21 : not fulfilled
5) Cn1cc(C(=O)O)c(=O)c2cc(F)c(N3CCN(c4ccccn4)CC3)c(C(F)(F)F)c21 : fulfilled
6) Cn1cc(C(=O)O)c(=O)c2cc(F)c(N3CCN(c4ncccn4)CC3)c(C(F)(F)F)c21 : fulfilled

---

assay: The time for peak concentration value after oral administration in cynomolgus monkeys; type: ADME, organism-based; conditions: cercopithecidae, in vivo
assay.metric: Tmax

1. Cn1cc(C(=O)O)c(=O)c2cc(F)c(N3CCN(c4ccccn4)CC3)c(C(F)(F)F)c21 : 2 h
2. O=C(O)c1cn(C2CC2)c2c(C(F)(F)F)c(N3CCN(c4ccccn4)CC3)c(F)cc2c1=O : 2 h
3. Cn1cc(C(=O)O)c(=O)c2cc(F)c(N3CCN(c4ncccn4)CC3)c(C(F)(F)F)c21 : 4 h

---

assay: The total clearance was determined after intravenous administration in cynomolgus monkeys; type: ADME, organism-based; details: cercopithecidae, in vivo, read-out: CLtotal (converted)
# clearance listing for each entry below
assay.metric: clearance

1) Cn1cc(C(=O)O)c(=O)c2cc(F)c(N3CCN(c4ncccn4)CC3)c(C(F)(F)F)c21 : 1.08 mL/min/kg
2) Cn1cc(C(=O)O)c(=O)c2cc(F)c(N3CCN(c4ccccn4)CC3)c(C(F)(F)F)c21 : 0.928 mL/min/kg
3) O=C(O)c1cn(C2CC2)c2c(C(F)(F)F)c(N3CCN(c4ccccn4)CC3)c(F)cc2c1=O : 4.89 mL/min/kg

---

tested on: MT4; experiment: The compound was tested for cytotoxicity against mock-infected MT-4 cells.; assay type: functional; settings: Homo sapiens
Label rule met when CC50 is strictly below 10 µM; at or above that, label rule not met.

1) COc1ccccc1N1CCN(c2c(F)cc3c(=O)c(C(=O)O)cn(C4CC4)c3c2C(F)F)CC1 : rule not met
2) CCn1cc(C(=O)O)c(=O)c2cc(F)c(N3CCN(c4ncccn4)CC3)c(C(F)F)c21 : rule not met
3) CCn1cc(C(=O)O)c(=O)c2cc(F)c(N3CCN(c4ccccc4OC)CC3)c(C(F)(F)F)c21 : rule met
4) COc1ccccc1N1CCN(c2c(F)cc3c(=O)c(C(=O)O)cn(C)c3c2C(F)(F)F)CC1 : rule met
5) Cn1cc(C(=O)O)c(=O)c2cc(F)c(N3CCN(c4ncccn4)CC3)c(C(F)F)c21 : rule not met

---

assay: Mean residence time was determined after intravenous administration in cynomolgus monkeys; format: ADME, organism-based; conditions: cercopithecidae, in vivo
assay.metric: MRT

1. O=C(O)c1cn(C2CC2)c2c(C(F)(F)F)c(N3CCN(c4ccccn4)CC3)c(F)cc2c1=O : 0.8 h
2. Cn1cc(C(=O)O)c(=O)c2cc(F)c(N3CCN(c4ccccn4)CC3)c(C(F)(F)F)c21 : 9.3 h
3. Cn1cc(C(=O)O)c(=O)c2cc(F)c(N3CCN(c4ncccn4)CC3)c(C(F)(F)F)c21 : 8.2 h
